Data origin: ChEMBL document CHEMBL4257563

target: Oxysterols receptor LXR-beta (Homo sapiens); experiment: Agonist activity at GAL4-tagged human LXRbeta LBD expressed in HEK293T cells after 12 hrs by luciferase reporter gene assay; assay type: cell-based
Sequence (P55055 whole entry, the tested form may be a part): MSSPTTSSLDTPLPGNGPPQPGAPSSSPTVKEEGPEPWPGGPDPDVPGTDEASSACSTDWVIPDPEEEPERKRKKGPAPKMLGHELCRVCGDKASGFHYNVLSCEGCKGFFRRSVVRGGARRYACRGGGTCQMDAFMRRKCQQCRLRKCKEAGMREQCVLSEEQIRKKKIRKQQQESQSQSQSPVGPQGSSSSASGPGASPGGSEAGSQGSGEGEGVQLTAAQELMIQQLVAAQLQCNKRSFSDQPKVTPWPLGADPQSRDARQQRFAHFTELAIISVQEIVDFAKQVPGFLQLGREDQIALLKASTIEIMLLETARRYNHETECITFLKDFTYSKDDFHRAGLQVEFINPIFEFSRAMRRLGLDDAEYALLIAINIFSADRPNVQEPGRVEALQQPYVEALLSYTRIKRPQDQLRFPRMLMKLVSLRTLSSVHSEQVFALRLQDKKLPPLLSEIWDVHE
pEC50: −log10 of the molar value.
measurement_name: pEC50

compound="Cc1c(C(=O)OC(C)C(=O)N2CCNC2=O)oc2cc(F)ccc12 (stereo unspecified)" target_system="Oxysterols receptor LXR-beta (Homo sapiens)" result_number=6.14

---

target: Oxysterols receptor LXR-alpha (Homo sapiens, UniProt Q13133); assay: Agonist activity at human LXRalpha-LBD (182 to 447 amino acids) expressed in HEK293T cells by luciferase reporter gene assay; format: cell-based
Sequence (Q13133 whole entry, the tested form may be a part): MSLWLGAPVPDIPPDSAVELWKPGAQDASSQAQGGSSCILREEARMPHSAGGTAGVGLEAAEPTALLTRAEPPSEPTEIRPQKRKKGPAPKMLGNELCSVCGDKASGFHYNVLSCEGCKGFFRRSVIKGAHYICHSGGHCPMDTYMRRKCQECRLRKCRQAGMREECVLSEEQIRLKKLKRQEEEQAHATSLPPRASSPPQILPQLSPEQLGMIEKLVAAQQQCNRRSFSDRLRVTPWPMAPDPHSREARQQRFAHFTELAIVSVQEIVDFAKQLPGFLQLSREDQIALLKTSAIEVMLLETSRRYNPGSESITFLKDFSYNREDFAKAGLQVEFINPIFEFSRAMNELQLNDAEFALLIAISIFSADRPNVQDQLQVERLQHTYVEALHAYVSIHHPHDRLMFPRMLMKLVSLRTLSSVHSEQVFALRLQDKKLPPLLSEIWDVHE
measurement_name: EC50 (nM)

chemical_string=CN(CC(=O)Nc1ccc(F)c(F)c1F)C(=O)c1ccc2c(c1)OCCO2 measurement_name=EC50 result_number=150

---

test: Plasma concentration in cynomolgus monkey at 1 mg/kg, po after 48 hrs by LC-MS analysis; type: ADME, organism-based, Macaca fascicularis
measurement_name: concentration at 48 h (nM)

chemical_string=CC(C)(O)c1cn(-c2ccc(-c3cccc(S(C)(=O)=O)c3)cc2)c(C(C)(C)c2ccccc2Cl)n1 measurement_name="concentration at 48 h" units_label=nM result_number=154

---

molecular target: Oxysterols receptor LXR-beta (Homo sapiens); assay: Agonist activity at human LXRbeta-LBD (196 to 461 amino acids) expressed in HEK293T cells by luciferase reporter gene assay; assay type: cell-based
measurement_name: EC50 (nM)

chemical_string=CN(CC(=O)Nc1ccc(F)c(F)c1F)C(=O)c1ccc2c(c1)OCCO2 target_system="Oxysterols receptor LXR-beta (Homo sapiens)" result_number=530

---

experiment: Cmax in cynomolgus monkey at 1 mg/kg, po by LC-MS analysis; assay type: ADME, organism-based, Macaca fascicularis; parameters: dose 1 mg/kg, route oral; details: in vivo
measurement_name: Cmax (nM)

chemical_string=CC(C)(O)c1cn(-c2ccc(-c3cccc(S(C)(=O)=O)c3)cc2)c(C(C)(C)c2ccccc2Cl)n1 result_number=2230

---

target: Oxysterols receptor LXR-alpha (Homo sapiens, UniProt Q13133); assay: Inverse agonist activity at LXRalpha (unknown origin) expressed in HEK293 cells 24 hrs by Dual-Glo luciferase assay
pIC50: −log10 of the molar value.
measurement_name: pIC50

chemical_string=CCOC(=O)c1ccc(CN(Cc2ccc(-c3cccc(S(C)(=O)=O)c3)cc2)S(=O)(=O)c2c(C)cc(C)cc2C)o1 target_system="Oxysterols receptor LXR-alpha (Homo sapiens, UniProt Q13133)" result_number=6.67

---

molecular target: Oxysterols receptor LXR-beta (Homo sapiens); test: Agonist activity at human full length LXRbeta expressed in African green monkey CV-1 cells co-expressing human pCMX/RXRalpha after 20 hrs by luciferase reporter gene assay; assay type: cell-based
pEC50: −log10 of the molar value.
measurement_name: pEC50

chemical_string=CS(=O)(=O)c1cccc(-c2ccc(-c3cc(C(F)(F)F)nn3-c3ccccc3Cl)s2)c1 measurement_name=pEC50 result_number=6.97
